Listed here: items and their measured MFI at 20 nM.
ASSAY_TARGET: human delta-like ligand 3 (DLL3) on SHP77 cells (human) (UniProt Q9NYJ7)
Sequence (Q9NYJ7 27-618, stated change not applied): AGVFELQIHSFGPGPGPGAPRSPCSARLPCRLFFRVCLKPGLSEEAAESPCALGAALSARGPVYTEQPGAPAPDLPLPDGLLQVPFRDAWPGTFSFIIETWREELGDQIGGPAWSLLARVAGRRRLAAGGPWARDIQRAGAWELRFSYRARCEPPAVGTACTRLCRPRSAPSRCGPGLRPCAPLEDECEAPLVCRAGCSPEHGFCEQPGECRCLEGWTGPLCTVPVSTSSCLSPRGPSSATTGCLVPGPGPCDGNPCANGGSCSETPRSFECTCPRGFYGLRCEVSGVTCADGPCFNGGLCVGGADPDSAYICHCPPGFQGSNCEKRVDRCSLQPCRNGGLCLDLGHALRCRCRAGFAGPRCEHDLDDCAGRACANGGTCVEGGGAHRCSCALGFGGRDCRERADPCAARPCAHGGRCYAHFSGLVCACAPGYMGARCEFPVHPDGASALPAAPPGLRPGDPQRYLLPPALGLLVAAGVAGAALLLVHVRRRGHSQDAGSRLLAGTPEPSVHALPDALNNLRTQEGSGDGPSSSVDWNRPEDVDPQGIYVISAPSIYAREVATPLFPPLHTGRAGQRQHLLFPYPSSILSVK
RUN_DESCRIPTION: FACS on SHP77 cells
Provide the reading as a plain figure in MFI.

Observe how each entry below is paired with its result.
{"BINDER": "Hab006VL1VH4-hFc (scFv, part only; not given: VL-VH linker and human IgG1 Fc, V domains shown, not shown: another chain or arm of the molecule; a dimerising Fc or GST; small tags and cut ends) VL: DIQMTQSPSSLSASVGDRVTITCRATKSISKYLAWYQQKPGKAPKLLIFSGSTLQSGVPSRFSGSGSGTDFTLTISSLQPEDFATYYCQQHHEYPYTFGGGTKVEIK VH: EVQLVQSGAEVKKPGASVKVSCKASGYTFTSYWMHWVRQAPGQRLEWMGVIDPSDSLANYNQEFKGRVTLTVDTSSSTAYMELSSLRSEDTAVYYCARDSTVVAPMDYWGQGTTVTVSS", "MFI at 20 nM (MFI)": 1600}
{"BINDER": "Hab015VL5VH1b-hFc (scFv, part only; not given: VL-VH linker and human IgG1 Fc, V domains shown, not shown: another chain or arm of the molecule; a dimerising Fc or GST; small tags and cut ends) VL: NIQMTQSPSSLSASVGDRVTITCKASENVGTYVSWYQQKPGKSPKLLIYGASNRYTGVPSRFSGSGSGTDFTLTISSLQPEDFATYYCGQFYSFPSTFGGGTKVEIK VH: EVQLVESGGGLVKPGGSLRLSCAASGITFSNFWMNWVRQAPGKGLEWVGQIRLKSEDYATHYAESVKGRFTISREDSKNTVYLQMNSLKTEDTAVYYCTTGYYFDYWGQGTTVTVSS", "MFI at 20 nM (MFI)": 844}

I'd like to know its MFI at 20 nM. The binder in question is Hab013VL2VH2a-hFc (scFv, part only; not given: scFv linker and human IgG1 Fc, V domains shown, not shown: another chain or arm of the molecule; a dimerising Fc or GST; small tags and cut ends) VL: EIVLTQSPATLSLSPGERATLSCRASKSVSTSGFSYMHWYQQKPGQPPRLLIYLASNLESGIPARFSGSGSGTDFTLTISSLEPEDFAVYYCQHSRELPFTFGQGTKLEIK VH: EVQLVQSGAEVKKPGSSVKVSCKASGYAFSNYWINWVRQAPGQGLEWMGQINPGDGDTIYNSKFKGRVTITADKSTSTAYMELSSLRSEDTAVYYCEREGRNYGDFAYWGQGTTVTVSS 876

Next up: Hab009VL1aVH1-hFc (scFv, part only; not given: scFv linker and human IgG1 Fc, V domains shown, not shown: another chain or arm of the molecule; a dimerising Fc or GST; small tags and cut ends) VL: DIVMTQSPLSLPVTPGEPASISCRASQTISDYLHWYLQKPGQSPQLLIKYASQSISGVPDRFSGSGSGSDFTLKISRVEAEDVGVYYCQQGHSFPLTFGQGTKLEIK VH: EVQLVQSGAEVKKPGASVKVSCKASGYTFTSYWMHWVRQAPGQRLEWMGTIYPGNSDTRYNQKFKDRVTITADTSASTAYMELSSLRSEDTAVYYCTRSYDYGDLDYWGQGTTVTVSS 855

Then Hab006VL4VH1-hFc (scFv, part only; not given: scFv linker and human IgG1 Fc, V domains shown, not shown: another chain or arm of the molecule; a dimerising Fc or GST; small tags and cut ends) VL: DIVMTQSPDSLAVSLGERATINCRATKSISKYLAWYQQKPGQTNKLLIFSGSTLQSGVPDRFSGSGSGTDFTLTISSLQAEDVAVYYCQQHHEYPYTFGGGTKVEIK VH: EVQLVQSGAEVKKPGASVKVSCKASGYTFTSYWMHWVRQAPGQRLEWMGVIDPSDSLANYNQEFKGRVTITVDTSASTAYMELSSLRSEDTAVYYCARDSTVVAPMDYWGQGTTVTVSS ? 1660

Where do these numbers come from? They come from patent EP4786492A1.
